target: Potassium voltage-gated channel subfamily KQT member 2 (Rattus norvegicus) (UniProt O88943); assay: KCNQ2 channel current inhibitors, SAR follow-up, orthogonal assay for KCNQ2 inhibitor project, automated electrophysiology, CHO cells, CRC2 (AID 588426); conditions: KCNQ2-CHO automated patch clamp current
Sequence (O88943 whole entry, looked up): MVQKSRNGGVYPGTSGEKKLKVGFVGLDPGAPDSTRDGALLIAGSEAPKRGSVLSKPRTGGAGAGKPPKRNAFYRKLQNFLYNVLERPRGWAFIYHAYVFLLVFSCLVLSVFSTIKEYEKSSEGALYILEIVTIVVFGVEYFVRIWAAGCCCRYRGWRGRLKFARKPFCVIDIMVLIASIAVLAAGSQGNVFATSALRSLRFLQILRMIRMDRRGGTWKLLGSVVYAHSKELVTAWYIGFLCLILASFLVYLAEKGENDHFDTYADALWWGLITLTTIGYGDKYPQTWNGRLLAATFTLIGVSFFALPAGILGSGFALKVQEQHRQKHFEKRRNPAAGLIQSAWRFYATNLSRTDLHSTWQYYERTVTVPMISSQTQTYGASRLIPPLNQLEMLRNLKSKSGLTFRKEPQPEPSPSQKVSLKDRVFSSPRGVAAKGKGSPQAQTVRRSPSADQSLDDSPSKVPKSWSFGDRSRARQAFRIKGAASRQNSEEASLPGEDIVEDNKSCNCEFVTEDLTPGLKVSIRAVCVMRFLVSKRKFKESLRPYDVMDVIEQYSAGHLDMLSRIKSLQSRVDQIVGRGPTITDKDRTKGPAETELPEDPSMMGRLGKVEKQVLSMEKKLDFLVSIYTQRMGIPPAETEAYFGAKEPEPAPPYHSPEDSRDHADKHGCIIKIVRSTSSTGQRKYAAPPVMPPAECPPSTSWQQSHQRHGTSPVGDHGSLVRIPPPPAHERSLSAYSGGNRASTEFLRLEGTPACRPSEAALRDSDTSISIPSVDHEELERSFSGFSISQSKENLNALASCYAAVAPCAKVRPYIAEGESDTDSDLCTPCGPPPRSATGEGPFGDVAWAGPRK
pIC50: −log10 of the molar value.
Quantity measured: pIC50

{"columns": ["Compound", "Recorded number"],
 "data": [
  ["O=C(Nc1ccccc1N1CCCC1)C(c1ccccc1)C1CC1 (stereo unspecified)", 5.46],
  ["CCC(C(=O)Nc1ccccc1-n1cccc1)c1ccccc1 (stereo unspecified)", 5.28],
  ["CCC(C(=O)Nc1ccccc1N1CCCC1)c1ccc(Cl)cc1 (stereo unspecified)", 6.55],
  ["O=C(Nc1ccccc1N1CCCC1)[C@@H]1CCc2ccccc21", 5.64],
  ["CC[C@H](C(=O)Nc1ccccc1N1CCCC1)c1ccccc1", 7.10],
  ["CCC(C(=O)Nc1ccccc1N(C)C)c1ccccc1 (stereo unspecified)", 4.76]
]}

###

biological target: Potassium voltage-gated channel subfamily KQT member 2 (Rattus norvegicus) (UniProt O88943); assay: KCNQ2 channel current inhibitors, SAR follow-up, orthogonal assay for KCNQ2 inhibitor project, automated electrophysiology, CHO cells, CRC2 (AID 588426); settings: KCNQ2-CHO automated patch clamp current; at 30 µM (top of the series)
Active and inactive are the calls of the source.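 Rule for the calls: active = blocks KCNQ2 potassium channel current at some tested dose, with a fitted dose response curve; inactive = the rest.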

{"columns": ["Compound", "current change, negative = inhibition"],
 "data": [
  ["CCC(C(=O)Nc1ccccc1-n1ccnc1)c1ccccc1 (stereo not drawn)", "inactive"],
  ["O=C(Nc1ccccc1N1CCCC1)C1(c2ccccc2)CC1", "inactive"],
  ["CCC(C(=O)Nc1ccccc1N1CCCCC1)c1ccccc1 (stereo not drawn)", "inactive"],
  ["CCC(C(=O)Nc1ccccc1-n1c(C)ccc1C)c1ccccc1 (stereo not drawn)", "inactive"],
  ["CCC(C(=O)Nc1ccccc1N(C)Cc1ccccc1)c1ccccc1 (stereo not drawn)", "inactive"],
  ["CCC(C(=O)Nc1ccccc1OC)c1ccccc1 (stereo not drawn)", "inactive"],
  ["CCC(C(=O)Nc1cccc(N2CCCC2)c1)c1ccccc1 (stereo not drawn)", "inactive"],
  ["CC(C)C(C(=O)Nc1ccccc1N1CCCC1)c1ccccc1 (stereo not drawn)", "inactive"]
]}

###

A collection of compounds and their measured IC50
biological target: Potassium voltage-gated channel subfamily KQT member 2 (Rattus norvegicus) (UniProt O88943); assay: KCNQ2 channel current inhibitors, SAR follow-up, orthogonal assay for KCNQ2 inhibitor project, automated electrophysiology, CHO cells, CRC2 (AID 588426); conditions: KCNQ2-CHO automated patch clamp current

{"columns": ["Compound", "IC50"],
 "data": [
  ["CC(C)CC(C(=O)Nc1ccccc1N1CCCC1)c1ccccc1 (centres undefined)", "2.22 µM"],
  ["O=C(Cc1ccc(Cl)c(Cl)c1)Nc1ccccc1N1CCCC1", "1.07 µM"],
  ["O=C(Cc1c(F)cccc1F)Nc1ccccc1N1CCCC1", "0.56 µM"],
  ["CCC(C(=O)Nc1ccccc1N1CCCC1)c1ccc(Cl)c(Cl)c1 (centres undefined)", "0.47 µM"],
  ["CCC(C(=O)Nc1ccccc1N1CCCC1)c1ccccc1F (centres undefined)", "0.44 µM"],
  ["CCC(C(=O)Nc1ccccc1N1CCCC1)c1cccc(F)c1 (centres undefined)", "0.36 µM"],
  ["CCC(C(=O)Nc1ccccc1N1CCCC1)c1ccccc1Cl (centres undefined)", "3.31 µM"],
  ["O=C(Nc1ccccc1N1CCCC1)C(F)c1ccccc1 (centres undefined)", "0.99 µM"],
  ["CCC(C(=O)Nc1ccccc1N1CCCC1)c1ccc(OC)c(OC)c1 (centres undefined)", "20.2 µM"],
  ["CCC(C(=O)Nc1ccccc1N1CCCC1)c1cccc(C(F)(F)F)c1 (centres undefined)", "0.39 µM"],
  ["CCC(C(=O)Nc1ccccc1N1CCCC1)c1cccc(Cl)c1 (centres undefined)", "0.24 µM"],
  ["C[C@@H](C(=O)Nc1ccccc1N1CCCC1)c1ccccc1", "5.13 µM"],
  ["O=C(Cc1ccccc1)Nc1ccccc1N1CCCC1", "0.74 µM"],
  ["CC[C@H](C(=O)Nc1ccc(N2CCCC2)cc1)c1ccccc1", "0.11 µM"],
  ["O=C(Cc1ccc(F)c(F)c1)Nc1ccccc1N1CCCC1", "1.73 µM"],
  ["CC(C(=O)Nc1ccccc1N1CCCC1)c1ccccc1 (centres undefined)", "0.26 µM"],
  ["O=C(Nc1ccccc1N1CCCC1)[C@H]1CCCc2ccccc21", "24.6 µM"],
  ["CCC(C(=O)Nc1ccccc1Cl)c1ccccc1 (centres undefined)", "15 µM"],
  ["CCC(C(=O)Nc1ccc(N2CCCC2)cc1)c1ccccc1 (centres undefined)", "0.21 µM"]
]}
